Provenance of the data: ChEMBL document CHEMBL5724801

- Tested on: Fibroblast
- TEST DESCRIPTION: Multiplex assay against human fibroblast
- Format: toxicity, cell-based
- PARTICULARS: 48 h, 1 µM, compound concentration 1 uM
MEASURED ATTRIBUTE: Population Normal (%)
Answer with a number only, understood to be in %.

- COMPOUND: "Cc1c(C(=O)NCCCN(C)C)sc2ncnc(Nc3ccc(F)cc3OC(C)CF)c12 (stereo not given)"
  U: "%"
  RECORDED RESULT: 100

*Q* Fill blank: measured Population Normal (%) of the compound COC(=O)C1=C(C)NC(C)=C(C(=O)OC(C)C)C1c1cccc2nonc12 (stereo not given) [ISRADIPINE] is ____.
*A* 100

* * *

Reported Population Normal (%) values for a set of compounds
- System: U2OS
- TEST DESCRIPTION: Multiplex assay against U2OS
- Format: toxicity, cell-based
- PARTICULARS: human, 48 h, 10 µM, compound concentration 10 uM
Give the value, in units of %, as a plain number.

- COMPOUND: "O=c1nc2[nH]c3ccccc3nc-2c(=O)[nH]1 [ALLOXAZINE]"
  SYSTEM: "U2OS"
  Population Normal (%): 98

*Q* Would you mind telling me what Population Normal (%) value was observed for `CN(C)C(=O)Cn1cc(-c2ccc(-c3cncc4ccccc34)cc2)cn1` ?
*A* 97

*Q* Entry COc1ccc2c(c1OCc1ccccc1)C[C@@H](C(=O)O)N(C(=O)C(c1ccccc1)c1ccccc1)C2 [OLODANRIGAN] please
*A* 98

*Q* Please do the same for CCCCCN1C(=O)C2(COc3cc4c(cc32)OCO4)c2ccccc21 (stereo not given) as well.
*A* 100

*Q* Again, but for CC(C)(c1ccc(O)cc1)c1ccc(O)cc1 [BISPHENOL A]
*A* 100

*Q* Please give the result for CCC(=N\O)/C(C)=C/c1ccc(F)cc1 [A-079] too.
*A* 100

*Q* And the next one, `CCOC(=O)c1c(/C(C#N)=C\N)c2ccc(Cl)c(Cl)c2n1C` ?
*A* 100

*Q* Request: CC[C@@H](C)Nc1nc(C)nc2c(-c3ccc(OC)nc3C)c(C)nn12 [PEXACERFONT]
*A* 98

*Q* And the next one, `NC1=NC(=O)/C(=C2\CCNC(=O)c3[nH]c4ccccc4c32)N1` ?
*A* 100

*Q* Then Cc1ccccc1C(=O)Nc1ccc(C(=O)N2CCCC(N(C)C)c3ccccc32)cc1.Cl (stereo not given) ?
*A* 91

* * *

- Test system: U2OS
- TEST DESCRIPTION: Multiplex assay against U2OS
- Type: toxicity, cell-based
- PARTICULARS: human, 48 h, 10 µM, compound concentration 10 uM
Recorded measurements of Population Normal (%), one per entry
Numeric answer only, unit % assumed.

- COMPOUND: "CN1[C@@H](CC(=O)c2ccccc2)CCC[C@H]1C[C@H](O)c1ccccc1.Cl [LOBELINE HYDROCHLORIDE]"
  Population Normal (%): 100
- COMPOUND: "COc1cc(N2CCN(C)CC2)ccc1Nc1nccc(-c2cn(C)c3cnccc23)n1"
  Population Normal (%): 100
- COMPOUND: "Cc1ccc(-c2c(C(=O)CF)n(CCCO)c3ncnc(N)c23)cc1"
  Population Normal (%): 100
- COMPOUND: "COc1ccc(CC(=O)NC(N/C(=N/C#N)Nc2cccc3ncccc23)C(C)(C)C)cc1OC (stereo not drawn)"
  Population Normal (%): 100
- COMPOUND: "Cc1cccc(NC(=O)CN2CCC(c3ccccn3)CC2)c1.Cl.Cl"
  Population Normal (%): 96
- COMPOUND: "CCn1c(-c2nonc2N)nc2c(C#CC(C)(C)O)ncc(OCC3CCCNC3)c21 (stereo not drawn)"
  Population Normal (%): 100
- COMPOUND: "Cc1cc(NC(=O)NCCN2CCC(O)(Cc3ccccc3)CC2)c2ccccc2n1 [PALOSURAN]"
  Population Normal (%): 98

*Q* Tell me the measured Population Normal (%) of Nc1nc(CC(=O)Nc2ccc(CCNC[C@H](O)c3ccccc3)cc2)cs1 [MIRABEGRON] , please.
*A* 97

* * *

Recorded Population Tubulin-Different-Phenotype (%) values for a group of compounds are listed next.
- Tested on: U2OS
- TEST DESCRIPTION: Multiplex assay against U2OS
- Assay type: toxicity, cell-based
- PARTICULARS: human, 48 h, 10 µM, compound concentration 10 uM
Provide only the numeric value, understood in %.

Example entries begin here.
- COMPOUND: "O=C1NC(NC23CC4CC(CC(C4)C2)C3)=N/C1=C\\c1ccc2ncsc2c1"
  RECORDED RESULT: 0
- COMPOUND: "O=C(O)CCC/C=C\\CC1C(O)CC(O)C1/C=C/C(O)COc1cccc(Cl)c1 (stereo not given)"
  RECORDED RESULT: 4
- COMPOUND: "O=C(NCC(=O)N1CC[C@H](N[C@H]2CC[C@@](O)(c3ccc(-c4ncccn4)cn3)CC2)C1)c1cccc(C(F)(F)F)c1"
  RECORDED RESULT: 4

*Q* Item `O=c1nc2[nH]c3ccccc3nc-2c(=O)[nH]1` has what recorded Population Tubulin-Different-Phenotype (%)?
*A* 2

*Q* Continue with COc1cc2nc(N3CCN(C(=O)c4ccco4)CC3)nc(N)c2cc1OC.Cl [PRAZOSIN HYDROCHLORIDE]
*A* 3

* * *

- System: HEK-293T
- TEST DESCRIPTION: Multiplex assay against HEK293T
- Type: toxicity, cell-based
- PARTICULARS: human, 48 h, 1 µM, compound concentration 1 uM
MEASURED ATTRIBUTE: Population Hoechst High Intensity Objects (%)
Write down the numeric answer in % and omit the unit.

Below are worked cases with known answers.
- COMPOUND: "Cc1c(C(=O)NCCCN(C)C)sc2ncnc(Nc3ccc(F)cc3OC(C)CF)c12 (stereo unspecified)"
  SYSTEM: "HEK-293T"
  U: "%"
  RECORDED RESULT: 0
- COMPOUND: "CCOC(=O)c1c(/C(C#N)=C\\N)c2ccc(Cl)c(Cl)c2n1C"
  SYSTEM: "HEK-293T"
  U: "%"
  RECORDED RESULT: 0
- COMPOUND: "Cc1ccc(-c2c(C(=O)CF)n(CCCO)c3ncnc(N)c23)cc1"
  SYSTEM: "HEK-293T"
  U: "%"
  RECORDED RESULT: 0

*Q* Can you share its Population Hoechst High Intensity Objects (%)? I mean this compound: CC1(COc2ccc3c(c2)ncn3-c2ccc3cccc(N4CCC(N)CC4)c3n2)COC1 [CRENOLANIB]
*A* 1

*Q* Moving on to the next compound: CN1[C@@H](CC(=O)c2ccccc2)CCC[C@H]1C[C@H](O)c1ccccc1.Cl [LOBELINE HYDROCHLORIDE]
*A* 0

* * *

- Tested on: HEK-293T
- TEST DESCRIPTION: Multiplex assay against HEK293T
- Format: toxicity, cell-based
- PARTICULARS: human, 24 h, 1 µM, compound concentration 1 uM
In this section we review reported Population Hoechst High Intensity Objects (%) values for a set of molecules.
Reply with just the number (in %).

// worked examples, Population Hoechst High Intensity Objects (%) included
- STRUCTURE SMILES: "Cc1ccc(-c2c(C(=O)CF)n(CCCO)c3ncnc(N)c23)cc1"
  SYSTEM: "HEK-293T"
  RECORDED RESULT: 0
- STRUCTURE SMILES: "NC1=NC(=O)/C(=C2\\CCNC(=O)c3[nH]c4ccccc4c32)N1"
  SYSTEM: "HEK-293T"
  RECORDED RESULT: 0
- STRUCTURE SMILES: "CC(C)[C@H](C(=O)Nc1ccc(C(=O)NO)cc1)c1ccccc1"
  SYSTEM: "HEK-293T"
  RECORDED RESULT: 0
- STRUCTURE SMILES: "Oc1c(CN2CCN(c3ccccn3)CC2)cc(Cl)c2cccnc12"
  SYSTEM: "HEK-293T"
  RECORDED RESULT: 3
- STRUCTURE SMILES: "CCC(=N\\O)/C(C)=C/c1ccc(F)cc1"
  SYSTEM: "HEK-293T"
  RECORDED RESULT: 0

*Q* Query: Population Hoechst High Intensity Objects (%); subject: `CCc1cc2cc(NS(=O)(=O)c3ccc(C#N)cc3)ccc2n(CC)c1=O`
*A* 5

* * *

- Tested on: HEK-293T
- TEST DESCRIPTION: Multiplex assay against HEK293T
- Assay type: toxicity, cell-based
- PARTICULARS: human, 12 h, 10 µM, compound concentration 10 uM
compounds and their reported Population Hoechst High Intensity Objects (%)
Give the number; % is assumed, so skip it.

Here are 5 compounds together with their reported answers.
- COMPOUND: "COc1cc(N2CCN(C)CC2)ccc1Nc1nccc(-c2cn(C)c3cnccc23)n1"
  U: "%"
  RECORDED RESULT: 0
- COMPOUND: "O=C(Nc1c[nH]nc1-c1nc2cc(CN3CCOCC3)ccc2[nH]1)NC1CC1"
  U: "%"
  RECORDED RESULT: 0
- COMPOUND: "CCn1c(-c2ccncc2)cc2c1CCNC2=O"
  U: "%"
  RECORDED RESULT: 0
- COMPOUND: "NC1=NC(=O)/C(=C2\\CCNC(=O)c3[nH]c4ccccc4c32)N1"
  U: "%"
  RECORDED RESULT: 0
- COMPOUND: "Cc1c(C(=O)NCCCN(C)C)sc2ncnc(Nc3ccc(F)cc3OC(C)CF)c12 (centres undefined)"
  U: "%"
  RECORDED RESULT: 0

*Q* Fill in the blank: the reported Population Hoechst High Intensity Objects (%) of `Cc1cc(NC(=O)NCCN2CCC(O)(Cc3ccccc3)CC2)c2ccccc2n1` is ____.
*A* 8

*Q* How about `CC(C)C[C@H](CO)Nc1nc(S[C@@H](C)c2ccccc2)nc2nc(N)sc12` ?
*A* 10

*Q* Next: CC(N)C1CCC(C(=O)Nc2ccncc2)CC1 (centres undefined)
*A* 0

*Q* Then what about the compound `CN1CC[C@@]23CCCC[C@@H]2[C@@H]1Cc1ccc(O)cc13.O=C(O)C(O)C(O)C(=O)O` ?
*A* 0
